# experimentalDetails: Pharmacokinetic experiment on mice (iv and ig)
# Format: in vivo
# runParameters: mouse, plasma, po; BALB/c Mice, ig, 5.00 mg/kg
propertyMeasured: AUC(0-inf) (ng·h/mL)
One number for each entry, in ng·h/mL.

Answered cases to consult:
[[record]]
molecule = "Cc1nn(C2CCC(=O)NC2=O)c2cccc(N3CC4CN(C[C@H]5CC[C@H](n6cc7cc(NC(=O)c8cnn9cccnc89)c(N8CCOCC8)cc7n6)CC5)CC4C3)c12 (stereo partly drawn) [TM-57]"
propertymeasured = "AUC(0-inf)"
observedvalue = 1920

[[record]]
molecule = "Cc1nn(C2CCC(=O)NC2=O)c2cccc(N3CCC4(CC3)CN(C[C@H]3CC[C@H](n5cc6cc(NC(=O)c7cnn8cccnc78)c(N(C)C)cc6n5)CC3)C4)c12 (stereo partly drawn) [TM-101]"
propertymeasured = "AUC(0-inf)"
observedvalue = 3550


Shifting focus to the molecule that follows.
Field AUC(0-inf) (entry Cc1nn(C2CCC(=O)NC2=O)c2cncc(N3CCN(C[C@H]4CC[C@H](n5cc6cc(NC(=O)c7cnn8cccnc78)c(N7CCO[C@H](C)C7)cc6n5)CC4)CC3)c12 (stereo partly drawn) [TM-109] ) reads 10100
